Entries annotated with measured Kd
Assay Target: feline FcRn complex (FcRn-α subunit and β-microglobulin), biotin labeled (feline)
Test Description: SPR, pH 6
Give the number; nM is assumed, so skip it.

1) feline IgG1a S434P (antibody, part only; not given: Variable domains, not shown: another chain or arm of the molecule) constant: ASTTAPSVFPLAPSCGTTSGATVALACLVLGYFPEPVTVSWNSGALTSGVHTFPAVLQASGLYSLSSMVTVPSSRWLSDTFTCNVAHPPSNTKVDKTVRKTDHPPGPKPCDCPKCPPPEMLGGPSIFIFPPKPKDTLSISRTPEVTCLVVDLGPDDSDVQITWFVDNTQVYTAKTSPREEQFNSTYRVVSVLPILHQDWLKGKEFKCKVNSKSLPSPIERTISKAKGQPHEPQVYVLPPAQEELSRNKVSVTCLIKSFHPPDIAVEWEITGQPEPENNYRTTPPQLDSDGTYFVYSKLSVDRSHWQRGNTYTCSVSHEALHPHHTQKSLTQSPGK : 5.64

I'd like to know its Kd. The binder in question is feline IgG1a H436K (antibody, part only; not given: Variable domains, not shown: another chain or arm of the molecule) constant: ASTTAPSVFPLAPSCGTTSGATVALACLVLGYFPEPVTVSWNSGALTSGVHTFPAVLQASGLYSLSSMVTVPSSRWLSDTFTCNVAHPPSNTKVDKTVRKTDHPPGPKPCDCPKCPPPEMLGGPSIFIFPPKPKDTLSISRTPEVTCLVVDLGPDDSDVQITWFVDNTQVYTAKTSPREEQFNSTYRVVSVLPILHQDWLKGKEFKCKVNSKSLPSPIERTISKAKGQPHEPQVYVLPPAQEELSRNKVSVTCLIKSFHPPDIAVEWEITGQPEPENNYRTTPPQLDSDGTYFVYSKLSVDRSHWQRGNTYTCSVSHEALHSHKTQKSLTQSPGK
6.91
